The origin of these recorded values is PubChem BioAssay AID179.

- Tested on: CEM cells HIV-1 protection, formazan growth assay
- assay-protocol: NCI AIDS Antiviral Assay
- conditions-used: measured here: growth of uninfected CEM cells
pIC50: −log10 of the molar value.
Please respond with reported pIC50 for every item in the list.

Use these answered entries as a reference point.
Input line: Specify pIC50 for `Cc1cc(N(CCC#N)CCC#N)ccc1N=Nc1cccc(Cl)c1` and stop.
Output line: < 5.11

Input line: Specify pIC50 for CC(=O)[n+]1nc(-c2nc(N)nc(NC3C4CC5CC(C4)CC3C5)n2)oc1-c1ccc(Cl)cc1 (configuration not stated) and stop.
Output line: < 4.95

Input line: Specify pIC50 for `COc1ccc(-c2cc(=O)cc(C(N)=O)o2)cc1` and stop.
Output line: < 3.70

Input line: Specify pIC50 for `Cn1c(=O)c2c(nc3sc4nc5ccccc5nc4n32)n(C)c1=O` and stop.
Output line: < 3.70

For each entry beneath this line, provide reported pIC50.
1. S=P(Oc1cc(Cl)c(Cl)cc1Cl)(N1CCN(c2cccc(Cl)c2)CC1)N1CCN(c2cccc(Cl)c2)CC1
2. O=c1c(-c2ccc(O)cc2)coc2c(C3OC(CO)C(O)C(O)C3O)c(O)ccc12 (configuration not stated)
3. COC(=N)CCCl
4. CC(C)Sc1nncc(/C(N)=N/O)n1

Output line:
1. < 4.95
2. < 3.70
3. < 3.70
4. < 3.70

For each entry beneath this line, provide reported pIC50.
1. CCOC1=NC(C(F)(F)F)(C(F)(F)F)N=C(N2CCCCC2)O1
2. CC(C)C1=CC2C3C(=O)NC(=O)C3C1C1C3C(=O)NC(=O)C3C21 (configuration not stated)
3. Cc1ccc(NC(=O)CC2C(=O)Nc3ccccc3S2(=O)=O)c(C)c1 (configuration not stated)
4. N#CN/C(N)=N/CO

Output line:
4.01
< 3.10
< 5.39
4.33

For each entry beneath this line, provide reported pIC50.
1. O=C(COc1ccccc1Cl)N1N=C(c2ccccc2)CC1(O)c1ccccc1 (configuration not stated)
2. O=C1C=CC2OC(c3ccccc3)[C@H](O)C2O1 (some centres not stated)
3. COc1cc(C2SCC(=O)N2c2ccc(-n3c(-c4ccccc4)nc4ccccc4c3=O)cc2)cc(OC)c1OC (configuration not stated)
4. CC1=NN(C(=O)CC(=O)Nc2ccc(Cl)cc2)C(=O)C1N=Nc1ccc(S(=O)(=O)c2ccc(N=NC3C(=O)N(C(=O)CC(=O)Nc4ccc(Cl)cc4)N=C3C)cc2)cc1 (configuration not stated)
5. Brc1cc2nn(-c3ccccc3)nc2c2nonc12
6. N#CC(C#N)=Cc1ccccc1F

Output line:
1. < 4.61
2. 5.16
3. 3.75
4. < 4.30
5. < 3.70
6. 4.76

----------
- Tested on: CEM cells HIV-1 protection, formazan growth assay
- assay-protocol: NCI AIDS Antiviral Assay
- conditions-used: measured here: growth of uninfected CEM cells
Where a SMILES comes first, the peptide text is derived from it. The star is where a group is joined. Boc = CC(C)(C)OC(=O)*
Please respond with reported IC50 for every item in the list.

Use these answered entries as a reference point.
Input line: Specify IC50 for CC(NC(=O)C(NC(=O)OC(C)(C)C)C(C)C)C(=O)NCC(=O)O (stereo not drawn) (Boc-Val-Ala-Gly-OH; configuration not given here) and stop.
Output line: > 200 µM

Input line: Specify IC50 for CC1CN=C(N(C(=O)Nc2ccc(Cl)c(Cl)c2)c2ccccc2)S1 (centres undefined) and stop.
Output line: > 200 µM

Input line: Specify IC50 for Cc1ccc(S(=O)(=O)OC2C(O)C(O)OC2C(c2cc(O)c3c(c2O)C(=O)c2ccccc2C3=O)c2cc(O)c3c(c2O)C(=O)c2ccccc2C3=O)cc1 (centres undefined) and stop.
Output line: 14.5 µM

Input line: Specify IC50 for CC1=C(N(C)C)C(=O)c2nc3n(c2C1=O)CCC3OC(N)=O (centres undefined) and stop.
Output line: 11.2 µM

Input line: Specify IC50 for `O=c1[nH]cnc2c1CN(c1ccccc1)C2` and stop.
Output line: > 234 µM

Input line: Specify IC50 for `Cc1cc(C)nc(NS(=O)(=O)c2ccc(NNc3c4ccccc4nc4c(C(=O)Nc5ccc(S(=O)(=O)N=C(N)N)cc5)cccc34)cc2)n1` and stop.
Output line: 31.6 µM

For each entry beneath this line, provide reported IC50.
1. CC(=O)OCC1OC(n2c(=S)n(-c3ccccc3)c(=S)c3ccccc32)C(OC(C)=O)C(OC(C)=O)C1OC(C)=O (centres undefined)
2. Cc1cc(S(=O)(=O)Nc2nc(N)nc(N3CCOCC3)n2)c(SCC(=O)O)cc1Cl
3. Nc1nc2cc(CNc3ccc(C(=O)NC(CCC(=O)O)C(=O)O)cc3)ccc2nc1-c1ccccc1 (centres undefined)
4. CC(=O)O[C@H]1CCC2[C@@H]3CCC4C(=O)c5[nH]ncc5C[C@]4(C)C3CC[C@@]21C (some centres undefined)
5. CSc1nc(C)c(CCOC(C)=O)c(Cl)n1

Output line:
1: > 16.6 µM; 2: > 200 µM; 3: 12.3 µM; 4: > 87.1 µM; 5: > 200 µM

For each entry beneath this line, provide reported IC50.
1. CCC1CC[N-]CC1.CCC1CC[N-]CC1.CCC1CC[N-]CC1.CCC1CC[N-]CC1.N#C[S-].N#C[S-].[Mn]
2. Cc1ccc(NC(=O)CC/C(CC(=O)c2ccc(F)cc2)=N\NC(=O)C(=O)NN)cc1C
3. Nc1sc(=S)nc2sc(Nc3ccccc3)nc12
4. CC12CCC(=O)N1[C@@H](c1ccccc1)[C@@H](c1ccccc1)O2 (some centres undefined)
5. Nc1c(C(=O)O)[nH]c(=O)[nH]c1=S
6. c1cncc(-c2ncc3cccnc3n2)c1
7. Cc1ccc(C(=O)/C(C#N)=C/Nc2c(C)n(C)n(-c3ccccc3)c2=O)cc1

Output line:
1. 27.5 µM
2. > 11.7 µM
3. > 427 µM
4. > 234 µM
5. 95.5 µM
6. > 100 µM
7. > 200 µM

Input line: Specify IC50 for COc1ccc(C(CC(=O)c2cccs2)C(=O)c2ccc3c(c2)OCO3)cc1 (centres undefined) and stop.
Output line: 102 µM
